System: A549
Assay: NCI tumour cell line growth inhibition, 48 h
Calls of active or inactive are those of the source. Rule as the data show it: active = GI50 up to about 1.1 µM and inactive = higher.
Recorded GI50 for the following compounds
readout: GI50

>>> endpoint_value("O=c1[nH]c(=O)n([C@@H]2O[C@H](CO)[C@@H](O)[C@@H]2F)cc1I")
"44.2 µM (inactive)"
>>> endpoint_value("CN(C)/C=N/c1cc(=O)n(C)c(=O)n1C")
"> 100 µM (inactive)"
>>> endpoint_value("[O-][N+]1=C(c2ccccc2)/C(=C2/C(c3ccccc3)=[N+]([O-])c3ccccc32)Cc2ccccc21")
"13.8 µM (inactive)"
>>> endpoint_value("CC1=NNC(=O)C1C1CC(c2c[nH]c3ccccc23)=NN(C(N)=O)C1=O (stereo not given)")
"64 µM (inactive)"
>>> endpoint_value("CC1(C)CC(=O)C2=C(C1)NC1=C(C2)C(=O)CC(C)(C)C1")
"> 100 µM (inactive)"
>>> endpoint_value("Nc1nc(S)c2c(N)n[nH]c2c1C(=O)Nc1ccc(Cl)cc1")
"> 100 µM (inactive)"
>>> endpoint_value("C/C(CC(=O)N(C(C)C)C(C)C)=N\\NC(=O)c1ccncc1")
"> 100 µM (inactive)"
>>> endpoint_value("CN(C)c1n/c(=N/Cc2ccncc2)ss1")
"> 10 µM (inactive)"
>>> endpoint_value("O=Cc1c(O)c(C(=O)Nc2ccc3[nH]c(=O)[nH]c3c2)cc2ccccc12")
"> 100 µM (inactive)"
>>> endpoint_value("COc1ccc(C(c2c(O)c3ccccc3n(C)c2=O)c2c(O)c3ccccc3n(C)c2=O)cc1")
"37.5 µM (inactive)"
>>> endpoint_value("N#CCc1ccccc1/C(C#N)=C1/OC(=N)C(c2ccccc2CC#N)C1=O (stereo not given)")
"> 100 µM (inactive)"
>>> endpoint_value("O=C1CSC(=S)N1c1ccc(F)cc1F")
"61.9 µM (inactive)"
>>> endpoint_value("COc1cc2ccc(/C(C)=N/OC(C)=O)cc2cc1OC")
"> 100 µM (inactive)"
>>> endpoint_value("O=Cc1cn(S(=O)(=O)c2ccccc2)c2ccccc12")
"> 100 µM (inactive)"
>>> endpoint_value("COc1cccc(C23CCCC(C2)N(C)CC3OC(=O)c2ccccc2)c1OC (stereo not given)")
"41 µM (inactive)"
>>> endpoint_value("O=P(c1ccccc1)(c1ccccc1)N1O[C@@H](c2ccccc2)C=C[C@H]1c1ccccc1")
"8.81 µM (inactive)"
>>> endpoint_value("COc1ccc(C(=O)C(CO)Oc2ccccc2OC)cc1OC (stereo not given)")
"> 100 µM (inactive)"
>>> endpoint_value("Cc1ccc(C)c2c1CCc1cc3ccccc3nc1-2")
"> 100 µM (inactive)"
>>> endpoint_value("O=C(O)CN1CCN(CC(=O)O)CCN(CC(=O)O)CC1")
"3.03 µM (inactive)"
>>> endpoint_value("Cc1cc(NC(=O)NC(=O)c2ccccc2N)ccc1Oc1ncc(Br)cn1")
"0.0112 µM (active)"
>>> endpoint_value("c1ccc(CN2CCC(CNc3ncnc4ccccc34)C2)cc1 (stereo not given)")
"> 100 µM (inactive)"
>>> endpoint_value("N#Cc1c(N)n(-c2cccc(C(=O)O)c2)c(=O)c2cc([N+](=O)[O-])ccc12")
"0.505 µM (active)"
>>> endpoint_value("CC[P+](C)(Cc1ccccc1)c1ccccc1.O=C(OC(C(=O)[O-])C(OC(=O)c1ccccc1)C(=O)O)c1ccccc1 (stereo not given)")
"> 100 µM (inactive)"
>>> endpoint_value("CC(=O)OC1C(O)C(C)OC(OC(=O)C2CCC3C(C2)OC2(CC(OC(=O)/C=C/c4ccccc4)C(C)CO2)C32CO2)C1OC1OC(C)C(O)C(O)C1O (stereo not given)")
"0.118 µM (active)"
>>> endpoint_value("CC(C)=CC(O)C/C(C)=C/CC/C(C)=C/CCC1(C)C(CCCO)/C(=C(/C)C=O)CCC1(C)O (stereo not given)")
"28.4 µM (inactive)"
>>> endpoint_value("Cc1cn(Cc2cn(CC3OC(n4cc(C)c(=O)[nH]c4=O)CC3O)nn2)c(=O)[nH]c1=O (stereo not given)")
"> 100 µM (inactive)"
>>> endpoint_value("O=C1CCCC2=C1CC1=C(CCCC1=O)N2c1ccc(Cl)cc1")
"> 100 µM (inactive)"
>>> endpoint_value("O=C(O)c1nc2ccccc2nc1Nc1ccc(F)cc1")
"33.4 µM (inactive)"
>>> endpoint_value("CC(C)CNC1=NCC(C)S1 (stereo not given)")
"> 100 µM (inactive)"
>>> endpoint_value("CC1(c2ccc(Cl)cc2)CC(c2ccc(Cl)cc2)=C(C#N)C(=C(C#N)C#N)N1 (stereo not given)")
"20.4 µM (inactive)"
>>> endpoint_value("CC(=O)O[C@H]1CC2C(C3CCC(C(C)CCC(=O)O)[C@]31C)[C@H](OC(C)=O)C[C@@H]1CC3(CC[C@]21C)OOC1(CC[C@]2(C)C4C[C@H](OC(C)=O)[C@]5(C)C(C(C)CCC(=O)O)CCC5C4[C@H](OC(C)=O)C[C@@H]2C1)OO3 (stereo not given in full)")
"1.27 µM (inactive)"
>>> endpoint_value("COC(=O)CC(=O)Nc1sccc1S(=O)(=O)c1ccccc1")
"> 100 µM (inactive)"
>>> endpoint_value("COc1cc(-c2[o+]c3cc(O)cc(O)c3cc2O)cc(O)c1O")
"> 100 µM (inactive)"
>>> endpoint_value("C=C1C(=O)OC2CCCCC3OC3C12 (stereo not given)")
"20.9 µM (inactive)"
>>> endpoint_value("Nc1cc2c(nnn2C2OC(COCc3ccccc3)C(OCc3ccccc3)C2OCc2ccccc2)c(=O)[nH]1 (stereo not given)")
"13.5 µM (inactive)"
>>> endpoint_value("COc1nc(N)c(NC2OC(CO)C(O)C2O)c(=O)[nH]1 (stereo not given)")
"> 100 µM (inactive)"
>>> endpoint_value("COc1ccc2c3c([nH]c2c1[N+](=O)[O-])C(C)N(Cc1ccccc1)CC3 (stereo not given)")
"5.05 µM (inactive)"
>>> endpoint_value("Cn1c(-c2c(C3=CC(=O)N(c4ccccc4)C3=O)c3ccccc3n2C)cc2ccccc21")
"> 100 µM (inactive)"
>>> endpoint_value("C=C[C@H]1CC[C@H]2[C@@H]3CC=C4C[C@@H](OC5OCC(O)C(O)C5O)CC[C@]4(C)[C@H]3CC[C@]12C (stereo not given in full)")
"12.9 µM (inactive)"
>>> endpoint_value("COC(=O)C1=C(C)NC(C)=C(C(=O)OC)C1c1nc2sccn2c1[N+](=O)[O-]")
"> 100 µM (inactive)"
